Target: T1, human CD80-murine Ig fusion protein (human)
T1 construct: Bought (Ancell #510-820); also called hCD80-mIg; human CD80-murine IgG
T1 chain: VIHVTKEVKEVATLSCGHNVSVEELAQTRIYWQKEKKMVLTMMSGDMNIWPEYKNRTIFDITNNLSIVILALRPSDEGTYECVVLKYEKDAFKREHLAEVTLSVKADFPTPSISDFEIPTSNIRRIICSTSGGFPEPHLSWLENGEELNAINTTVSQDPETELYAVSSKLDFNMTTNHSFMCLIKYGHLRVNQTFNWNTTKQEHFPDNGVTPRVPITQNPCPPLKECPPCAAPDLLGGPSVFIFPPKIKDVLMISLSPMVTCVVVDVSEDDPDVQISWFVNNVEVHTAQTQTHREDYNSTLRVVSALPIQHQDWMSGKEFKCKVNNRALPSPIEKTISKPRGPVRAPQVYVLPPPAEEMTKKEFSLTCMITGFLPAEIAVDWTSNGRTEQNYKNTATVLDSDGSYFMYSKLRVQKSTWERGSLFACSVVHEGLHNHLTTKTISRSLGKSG
Assay: SPR Biacore, hCD80-mIg captured
readout: Binding Avidity (Relative to Orencia)

Record summary for D3-12-IgG2 (Fc fusion) MHVAQPAVVLASSRGIASFVCEYESPGKANEIRVTVLRQAGSQVTEVCAMTYMKGDELTFLDDPSCTGTFSGNQVNLTIQGLRAADTGLYICKVELMYPPPYYLGIGNGTQIYVIDPEPCPDSDERKCCVECPPCPAPPVAGPSVFLFPPKPKDTLMISRTPEVTCVVVDVSHEDPEVQFNWYVDGVEVHNAKTKPREEQFNSTFRVVSVLTVVHQDWLNGKEYKCKVSNKGLPAPIEKTISKTKGQPREPQVYTLPPSREEMTKNQVSLTCLVKGFYPSDIAVEWESNGQPENNYKTTPPMLDSDGSFFLYSKLTVDKSRWQQGNVFSCSVMHEALHNHYTQKSLSLSPG : reported Binding Avidity (Relative to Orencia) = > 2 fold
